- Target system: TRPML1 (Homo sapiens, UniProt Q9GZU1)
- Construct: expressed in transfected cells; host or cells: HEK T-REx cells stably expressing GCaMP6f and TRPML1
- Sequence (Q9GZU1 whole entry): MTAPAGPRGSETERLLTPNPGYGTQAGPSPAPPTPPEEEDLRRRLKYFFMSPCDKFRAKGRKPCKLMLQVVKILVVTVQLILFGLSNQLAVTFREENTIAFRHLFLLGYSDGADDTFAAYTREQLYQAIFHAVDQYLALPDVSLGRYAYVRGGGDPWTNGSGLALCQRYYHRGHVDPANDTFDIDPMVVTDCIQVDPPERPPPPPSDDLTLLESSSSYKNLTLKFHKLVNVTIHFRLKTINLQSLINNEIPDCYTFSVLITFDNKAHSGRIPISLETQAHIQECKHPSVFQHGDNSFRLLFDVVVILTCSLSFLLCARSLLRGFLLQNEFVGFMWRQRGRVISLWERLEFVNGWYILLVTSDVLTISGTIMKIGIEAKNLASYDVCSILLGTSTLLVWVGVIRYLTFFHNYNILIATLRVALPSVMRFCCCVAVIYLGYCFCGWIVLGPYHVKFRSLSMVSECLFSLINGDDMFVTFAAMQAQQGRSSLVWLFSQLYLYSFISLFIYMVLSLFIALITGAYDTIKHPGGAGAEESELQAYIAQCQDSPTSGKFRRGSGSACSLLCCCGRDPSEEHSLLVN
- Protocol summary: Cellular TRPML1 assay (FLIPR, GCaMP6f calcium read-out)
- Assay type: cell-based
- Condition summary: HEKT-REx/GCaMP6f/TRPML1 cells, FLIPR TETRA, kinetic response over 300 seconds; read-out: TRPML1 FLIPR pEC50 (converted)
Documented EC50 across a set of compounds
Observation type: EC50

>>> print(df.to_string())
                                    compound                          target_system            result
 0  CCc1oc(N2CC(CC)(CC)C2)nc1C(=O)Nc1cc(F)c2c(c1)CCN2C1CC2CC2C1 (centres unmarked) [Example 316]  TRPML1 (Homo sapiens, UniProt Q9GZU1)     10 to 1000 nM
 1  CCC1(CC)CN(c2nc(C(=O)Nc3cc(F)c(O[C@@H]4C[C@@H]5C[C@@H]5C4)c(F)c3)c(CN(C)C)o2)C1 [Example 301]  TRPML1 (Homo sapiens, UniProt Q9GZU1)  1000 to 10000 nM
 2  CCC1(CC)CN(c2nc(C(=O)Nc3cc(F)c(OC4CCCOC4)c(F)c3)c(CC(F)(F)F)o2)C1 (centres unmarked) [Example 137]  TRPML1 (Homo sapiens, UniProt Q9GZU1)     10 to 1000 nM
 3  O=C(Nc1ccc(OC2COCC2(F)F)c(F)c1)c1nc(N2CCCC2)oc1CC(F)(F)F (racemic) [Example 71]  TRPML1 (Homo sapiens, UniProt Q9GZU1)     10 to 1000 nM
 4  CCC1(CC)CN(c2nc(C(=O)Nc3cc(F)c(O[C@@H]4C[C@@H]5C[C@@H]5C4)c(F)c3)c(CCF)o2)C1 [Example 287]  TRPML1 (Homo sapiens, UniProt Q9GZU1)     10 to 1000 nM
 5  CCC1(OC)CN(c2nc(C(=O)Nc3cc(O)c(OC4CC5CC(C5)C4)c(F)c3)c(CC(F)(F)F)o2)C1 (centres unmarked) [Example 266]  TRPML1 (Homo sapiens, UniProt Q9GZU1)  1000 to 10000 nM
 6  CN(c1ccc(NC(=O)c2nc(N3CC4(C3)CC(F)(F)C4)oc2CC(F)(F)F)cc1F)C1CCCC1 [Example 79]  TRPML1 (Homo sapiens, UniProt Q9GZU1)  1000 to 10000 nM
 7  CCc1oc(N2CCCC2)nc1C(=O)Nc1cc(F)c(OC2CC3CC(C3)C2)c(F)c1 (centres unmarked) [Example 229]  TRPML1 (Homo sapiens, UniProt Q9GZU1)     10 to 1000 nM
 8  O=C(Nc1ccc(OC2CCCC2(F)F)c(F)c1)c1nc(N2CC3C(C2)C3(F)F)oc1CC(F)(F)F (centres unmarked) [Example 10]  TRPML1 (Homo sapiens, UniProt Q9GZU1)  1000 to 10000 nM
 9  CCC1(CC)CN(c2nc(C(=O)Nc3cc(C)c4c(c3)CCN4C3CC4CC4C3)c(CC(F)(F)F)o2)C1 (centres unmarked) [Example 310]  TRPML1 (Homo sapiens, UniProt Q9GZU1)  1000 to 10000 nM
10  O=C(Nc1cc(F)c(O[C@@H]2C[C@@H]3C[C@@H]3C2)c(F)c1)c1nc(N2CCCC2)oc1CC(F)(F)F [Example 39]  TRPML1 (Homo sapiens, UniProt Q9GZU1)     10 to 1000 nM
11  CC1(C)CN(c2nc(C(=O)Nc3ccc(OC4CCC5CC54)c(F)c3)c(CC(F)(F)F)o2)C1 (centres unmarked) [Example 140]  TRPML1 (Homo sapiens, UniProt Q9GZU1)  1000 to 10000 nM
12  O=C(Nc1cc(F)c(OC2CC3CC(C3)C2)c(F)c1)c1nc(N2CCC3(CC3)C2)oc1CCF (centres unmarked) [Example 284]  TRPML1 (Homo sapiens, UniProt Q9GZU1)     10 to 1000 nM
13  COC1(C)CN(c2nc(C(=O)Nc3cc(F)c(O[C@@H]4C[C@@H]5C[C@@H]5C4)c(C#N)c3)c(CC(F)(F)F)o2)C1 [Example 142]  TRPML1 (Homo sapiens, UniProt Q9GZU1)     10 to 1000 nM
14  CCc1oc(N2CC(C)(OC)C2)nc1C(=O)Nc1cc(F)c(O[C@@H]2C[C@@H]3C[C@@H]3C2)c(Cl)c1 [Example 223]  TRPML1 (Homo sapiens, UniProt Q9GZU1)     10 to 1000 nM
15  O=C(Nc1ccc(N2CCCCC2)c(F)c1)c1nc(N2C[C@H]3CCO[C@H]3C2)oc1CC(F)(F)F [Example 26]  TRPML1 (Homo sapiens, UniProt Q9GZU1)  1000 to 10000 nM
16  CCCc1oc(N2CCCC2)nc1C(=O)Nc1ccc(OC2CCCC2(F)F)c(F)c1 (centres unmarked) [Example 110]  TRPML1 (Homo sapiens, UniProt Q9GZU1)  1000 to 10000 nM
17  CCC1(OC)CN(c2nc(C(=O)Nc3cc(F)c(OC4CCCOC4)c(F)c3)c(CC(F)(F)F)o2)C1 (centres unmarked) [Example 160]  TRPML1 (Homo sapiens, UniProt Q9GZU1)     10 to 1000 nM
18  CCC1(OC)CN(c2nc(C(=O)Nc3cc(F)c(N4CCC5CCCC54)c(F)c3)c(CC(F)(F)F)o2)C1 (centres unmarked) [Example 205]  TRPML1 (Homo sapiens, UniProt Q9GZU1)  1000 to 10000 nM
19  COCC1CCN(c2nc(C(=O)Nc3ccc(OC4CCCC4(F)F)c(F)c3)c(CC(F)(F)F)o2)C1 (centres unmarked) [Example 7]  TRPML1 (Homo sapiens, UniProt Q9GZU1)  1000 to 10000 nM
20  COC1CCC(Oc2ccc(NC(=O)c3nc(N4CCCC4)oc3CC(F)(F)F)cc2F)C1 (centres unmarked) [Example 43]  TRPML1 (Homo sapiens, UniProt Q9GZU1)  1000 to 10000 nM
21  O=C(Nc1ccc(OC2CCCC2(F)F)c(F)c1)c1nc(N2CCc3ccccc32)oc1CC(F)(F)F (centres unmarked) [Example 5]  TRPML1 (Homo sapiens, UniProt Q9GZU1)  1000 to 10000 nM
22  CCC1(OC)CN(c2nc(C(=O)Nc3cc(F)c(O[C@@H]4C[C@@H]5C[C@@H]5C4)c(F)c3)c(CN(C)C)o2)C1 [Example 303]  TRPML1 (Homo sapiens, UniProt Q9GZU1)     10 to 1000 nM
23  O=C(Nc1ccc(O[C@@H]2C[C@@H]3C[C@@H]3C2)c(F)c1)c1nc(N2CCC3(COC3)C2)oc1CC(F)(F)F [Example 73]  TRPML1 (Homo sapiens, UniProt Q9GZU1)     10 to 1000 nM
24  CCC1(CC)CN(c2nc(C(=O)Nc3cc(F)c(N4CCCCC4)c(F)c3)c(CC(F)(F)F)o2)C1 [Example 215]  TRPML1 (Homo sapiens, UniProt Q9GZU1)     10 to 1000 nM
25  CCc1oc(N2CC(CC)(CC)C2)nc1C(=O)Nc1cc(F)c(O[C@@H]2C[C@@H]3C[C@@H]3C2)c(F)c1 [Example 243]  TRPML1 (Homo sapiens, UniProt Q9GZU1)     10 to 1000 nM
26  O=C(Nc1cc(F)c(OC2CC3C[C@H]3C2)c(F)c1)c1nc(N2CC3(CCCC3)C2)oc1CC(F)(F)F (some centres unmarked) [Example 41]  TRPML1 (Homo sapiens, UniProt Q9GZU1)     10 to 1000 nM
27  CCC1(CC)CN(c2nc(C(=O)Nc3cc(F)c(OC4CCCC5(CCC5)C4)c(F)c3)c(CC(F)(F)F)o2)C1 (centres unmarked) [Example 134]  TRPML1 (Homo sapiens, UniProt Q9GZU1)  1000 to 10000 nM
28  CCc1oc(N2CC(CC)(OC)C2)nc1C(=O)Nc1cc(C)c(O[C@@H]2C[C@@H]3C[C@@H]3C2)c(F)c1 [Example 227]  TRPML1 (Homo sapiens, UniProt Q9GZU1)     10 to 1000 nM

---

Documented EC50 across a set of molecules
- Target system: TRPML1 (Homo sapiens)
- Construct: expressed in transfected cells; host or cells: HEK T-REx cells stably expressing GCaMP6f and TRPML1
- Protocol summary: Cellular TRPML1 assay (FLIPR, GCaMP6f calcium read-out)
- Assay type: cell-based
- Condition summary: HEKT-REx/GCaMP6f/TRPML1 cells, FLIPR TETRA, kinetic response over 300 seconds; read-out: TRPML1 FLIPR pEC50 (converted)
- Protocol: Example A: Cellular TRPML1 Assay The final clone for the TRPML1 assay is HEKT-REx/GCaMP6f/TRPML1. GCaMP6f is a genetically encoded calcium indicator that is stably expressed in this cell line and used as a fluorescent read-out. Experiments were performed in 384 MTP format. […] Twenty-four hours later, cells are assayed for the response to various compounds using the Ca^2+ sensitive GCaMP6f protein stably expressed in the cells as readout. […]
Where a name gives a salt, the structure may show the parent alone.
Observation type: EC50

>>> print(df.to_string())
                                   molecule            result
0  O=C(Nc1ccc(O[C@@H]2CC3C[C@@H]3C2)c(F)c1)c1nc(N2CCC3CC32)oc1CC(F)(F)F (stereo partly shown)     10 to 1000 nM
1  CCC1(OC)CN(c2nc(C(=O)Nc3cc(F)c(O[C@@H]4C[C@@H]5C[C@@H]5C4)c(F)c3)c(CC(F)(F)F)o2)C1     10 to 1000 nM
2  CCc1oc(N2CC(CC)(OC)C2)nc1C(=O)Nc1ccc(O[C@@H]2C[C@@H]3C[C@@H]3C2)c(F)c1     10 to 1000 nM
3  CCN(C)Cc1oc(N2CC(C)(OC)C2)nc1C(=O)Nc1cc(F)c(OC2CC3CC(C3)C2)c(F)c1 (stereo not shown) [Example 307, hydrochloride]     10 to 1000 nM
4  O=C(Nc1ccc(OC2CC(F)(F)C2)c(F)c1)c1nc(N2CCCC2)oc1CC(F)(F)F  1000 to 10000 nM
5  O=C(Nc1ccc(O[C@@H]2C[C@@H]3C[C@@H]3C2)c(F)c1)c1nc(N2CCCC2)oc1CC(F)(F)F     10 to 1000 nM
6  CCN(C)Cc1oc(N2CC(CC)(OC)C2)nc1C(=O)Nc1cc(O)c(OC2CC3CC(C3)C2)c(F)c1 (stereo not shown)  1000 to 10000 nM
